Target: T1, ZFP SBS#1402 (synthetic)
T1 chain: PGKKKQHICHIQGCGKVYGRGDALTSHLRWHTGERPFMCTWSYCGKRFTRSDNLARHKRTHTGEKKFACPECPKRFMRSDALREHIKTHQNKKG
Experiment: EMSA
Conditions: tags: MBP fusion
reported-endpoint: pKd
Give only the number. pKd is defined as minus log10 of concentration in molar units.

// fetch pKd given entry CTGGAGTTG (dsDNA) DNA 1: CTGGAGTTG DNA 2: CAACTCCAG
9.82

Reference source for all entries: patent US20030068675
